- run description: protein stability index of a GFP-peptide fusion (GPS, HEK-293T) (PSI 1-6); higher = more stable;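 further: 24-mer peptide tiles fused after GFP, lentivirally expressed, FACS-sorted into six equal bins by GFP/DsRed ratio, decoded by Illumina sequencing, PSI is the read-weighted mean bin number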
- condition details: treatment: MLN4924 1 uM, 8 h; c terminus: a fixed tail appended
Catalogue of protein stability index values
readout kind: protein stability index

1) TRLYLRSHRPNMELCRDAAQFRLL [TEKT4]
2.27
2) AAANGGHVKIVKLLLAHKADVNAQ [ANKRD17]
2.68
3) QMLLNVEANSAKVQEDLEAEFQSL [FSD1]
4.96
4) ILSGKFTILNVRDPTGASIALFTA [PTPN9]
3.19
5) FDRKKKSISLMYGGSKRKSSFFSS [SLA]
2.68
6) CLLGLGSLVLILSLSYTVLIVGRI [SLC2A12]
3.26
7) MANQEAAIQAFLDKCSAPKIWRTP [IQUB]
3.16
8) NVLSDLYAMGITECDNMLMLLSVS [SEPHS2]
2.71
9) TFDAITTIRGEVMFFKDRFYMRTN [MMP1]
2.07
10) IVRFSGQSRGVPAVSESYSAPGAC [FBXO34]
3.36
11) PKPSVLFLHPDLGVGGAERLVLDA [ALG2]
3.15
12) PLPWSECPVVRNGSVAVVEAECEK [SLC6A17]
5.3
13) NLKQLRKRGSIPTSLTALSLASAS [PPFIA4]
3.09
